Where do the numbers come from? From patent US10233179B2.

This section presents compounds with their documented MTT TD50 values.
Test system: HEp-2 cells
Assay: Cytotoxicity assay (MTT) in parallel with the antiviral assay
Type: cell-based
Conditions: uninfected HEp-2 cells, 4 days incubation, MTT viability
Write the value in µM as a bare number.

Use the examples below as a reference point.
[
  {
    "compound": "Clc1cnc(CN(Cc2cccn2-c2nccs2)Cc2cccn2-c2nccs2)c(Cl)c1",
    "system.tested": "HEp-2 cells",
    "MTT TD50 [µM]": 11
  },
  {
    "compound": "FC1(F)CCC(CN(Cc2cccn2-c2nccs2)Cc2cccn2-c2nccs2)CC1",
    "system.tested": "HEp-2 cells",
    "MTT TD50 [µM]": 20
  }
]

Reported MTT TD50 for c1cc(CN(Cc2cccn2-c2nccs2)CC2CCCO2)n(-c2nccs2)c1 (stereo not drawn) : what is it?
16

Reported MTT TD50 for c1cc(CN(Cc2cccn2-c2nncs2)CC2C[C@H]3CC[C@@H]2C3)n(-c2nncs2)c1 (stereo partly drawn) : what is it?
26

Reported MTT TD50 for c1cc(CN(Cc2cccn2-c2nccs2)C2CCCCC2)n(-c2nccs2)c1 : what is it?
7.2

Reported MTT TD50 for Cc1ccccc1CN(Cc1cccn1-c1nccs1)Cc1cccn1-c1nccs1 : what is it?
7.1

Reported MTT TD50 for C[C@H](c1ccccc1Cl)N(Cc1cccn1-c1nccs1)Cc1cccn1-c1nccs1 : what is it?
6.7

Reported MTT TD50 for FC(F)(F)c1cccc(CN(Cc2cccn2-c2nccs2)Cc2cccn2-c2nccs2)c1 : what is it?
38

###

This section presents compounds with their documented MTT TD50 values.
System: HEp-2 cells
Assay: Cytotoxicity assay (MTT) in parallel with the antiviral assay
Assay type: cell-based
Conditions: human, 4 days
Protocol: HEp-2 cells and RSV (Group A, Long Strain) were obtained from the American Type Culture Collection (Manassas, Va.). Cytotoxicity of the compounds was determined in experiments done in parallel with the antiviral assays. […] After 4 days of incubation, the viability of the cells was determined by the MTT assay in the same way as detailed in the “Antiviral Assay” method. […]
Write the value in µM as a bare number.

[
  {
    "compound": "c1ccc(C2(CCN(Cc3cccn3-c3nccs3)Cc3cccn3-c3nccs3)CC2)nc1 [Example 51]",
    "recorded.number": 6.2
  },
  {
    "compound": "CC(Cc1cccs1)N(Cc1cccn1-c1nncs1)Cc1cccn1-c1nncs1 (stereo not shown) [Example 25]",
    "recorded.number": 55
  }
]

Now let's try a different one.
Reported MTT TD50 for CC(Cc1cccs1)N(Cc1cccn1-c1nccs1)Cc1cccn1-c1nccs1 (stereo not shown) [Example 64] : what is it?
5.6

###

This section presents compounds with their documented MTT TD50 values.
Tested on: HEp-2 cells
Experiment: Cytotoxicity assay (MTT) in parallel with the antiviral assay
Format: cell-based
Settings: uninfected HEp-2 cells, 4 days incubation, MTT viability

Use the examples below as a reference point.
[
  {
    "compound": "C[C@@H](c1ccccc1Cl)N(Cc1cccn1-c1nncs1)Cc1cccn1-c1nncs1 [Example 20]",
    "MTT TD50": ">32 µM"
  },
  {
    "compound": "FC(F)(F)c1ccc(CN(Cc2cccn2-c2nccs2)Cc2cccn2-c2nccs2)cc1 [Example 34]",
    "MTT TD50": "34 µM"
  }
]

API: value(readout= MTT TD50, system= HEp-2 cells, query= FC(F)(F)c1cccc(CN(Cc2cccn2-c2nncs2)Cc2cccn2-c2nncs2)c1 [Example 16] )
30 µM

API: value(readout= MTT TD50, system= HEp-2 cells, query= c1coc(CN(Cc2cccn2-c2nccs2)Cc2cccn2-c2nccs2)c1 [Example 63] )
20 µM

API: value(readout= MTT TD50, system= HEp-2 cells, query= COc1ccc(CN(Cc2cccn2-c2nccs2)Cc2cccn2-c2nccs2)c(OC)c1 [Example 30] )
4.9 µM

API: value(readout= MTT TD50, system= HEp-2 cells, query= CC(c1ccc(Cl)c(Cl)c1)N(Cc1cccn1-c1nccs1)Cc1cccn1-c1nccs1 (stereo not shown) [Example 46] )
>32 µM

API: value(readout= MTT TD50, system= HEp-2 cells, query= N#Cc1ccc(CN(Cc2cccn2-c2nccs2)Cc2cccn2-c2nccs2)cc1 [Example 45] )
>32 µM

API: value(readout= MTT TD50, system= HEp-2 cells, query= Clc1ccc(CN(Cc2cccn2-c2nncs2)Cc2cccn2-c2nncs2)c(Cl)c1 [Example 42] )
32 µM

API: value(readout= MTT TD50, system= HEp-2 cells, query= N#Cc1ccc(CN(Cc2cccn2-c2nncs2)Cc2cccn2-c2nncs2)cc1 [Example 56] )
>100 µM

###

Tested on: HEp-2 cells
Test: Cytotoxicity assay (MTT) in parallel with the antiviral assay
Format: cell-based
Settings: uninfected HEp-2 cells, 4 days incubation, MTT viability
This section presents compounds with their documented MTT TD50 values.
Write the value in µM as a bare number.

[
  {
    "compound": "Fc1ccccc1CN(Cc1cccn1-c1nccs1)Cc1cccn1-c1nccs1 [Example 40]",
    "recorded.number": 6.3
  },
  {
    "compound": "c1cc(CN(Cc2cccn2-c2nccs2)CC2C[C@H]3CC[C@@H]2C3)n(-c2nccs2)c1 (some centres unmarked) [Example 32]",
    "recorded.number": 4.1
  },
  {
    "compound": "Clc1ccccc1CN(Cc1cccn1-c1nccs1)Cc1cccn1-c1nccs1 [Example 47]",
    "recorded.number": 7.0
  },
  {
    "compound": "Cc1c(C(C)N(Cc2cccn2-c2nccs2)Cc2cccn2-c2nccs2)cnn1-c1cccc(F)c1 (racemic) [Example 1]",
    "recorded.number": 11
  },
  {
    "compound": "COc1ccccc1CN(Cc1cccn1-c1nccs1)C(C)c1cnn(-c2cccc(F)c2)c1C (centres unmarked) [Example 4]",
    "recorded.number": 0.48
  }
]

Reported MTT TD50 for c1ccc(CN(Cc2cccn2-c2nccs2)Cc2cccn2-c2nccs2)cc1 [Example 31] : what is it?
5.4

Reported MTT TD50 for Clc1cccc(Cl)c1CN(Cc1cccn1-c1nccs1)Cc1cccn1-c1nccs1 [Example 36] : what is it?
24

Reported MTT TD50 for Clc1cnc(CN(Cc2cccn2-c2nncs2)Cc2cccn2-c2nncs2)c(Cl)c1 [Example 14] : what is it?
90

###

Tested on: HEp-2 cells
Experiment: Cytotoxicity assay (MTT) in parallel with the antiviral assay
Assay type: cell-based
Settings: uninfected HEp-2 cells, 4 days incubation, MTT viability
This section presents molecules with their documented MTT TD50 values.

Use the examples below as a reference point.
[
  {
    "molecule": "c1ccc(C2(CCN(Cc3cccn3-c3nncs3)Cc3cccn3-c3nncs3)CC2)nc1",
    "reported.endpoint": "MTT TD50",
    "result": ">32 µM"
  },
  {
    "molecule": "N#Cc1cc(CN(Cc2cccn2-c2nccs2)Cc2cccn2-c2nccs2)cs1",
    "reported.endpoint": "MTT TD50",
    "result": ">32 µM"
  },
  {
    "molecule": "CC(c1ccc(Cl)c(Cl)c1)N(Cc1cccn1-c1nncs1)Cc1cccn1-c1nncs1 (stereo not shown)",
    "reported.endpoint": "MTT TD50",
    "result": ">32 µM"
  },
  {
    "molecule": "c1cnnc(N(Cc2cccn2-c2nccs2)Cc2cccn2-c2nccs2)c1",
    "reported.endpoint": "MTT TD50",
    "result": ">100 µM"
  }
]

Reported MTT TD50 for Clc1cccc(Cl)c1CN(Cc1cccn1-c1nncs1)Cc1cccn1-c1nncs1 : what is it?
>32 µM

Reported MTT TD50 for Cn1nccc1N(Cc1cccn1-c1nncs1)Cc1cccn1-c1nncs1 : what is it?
>32 µM

Reported MTT TD50 for N#Cc1cc(CN(Cc2cccn2-c2nncs2)Cc2cccn2-c2nncs2)cs1 : what is it?
>100 µM

Reported MTT TD50 for c1cc(CN(Cc2cccn2-c2nncs2)C[C@H]2CCOC2)n(-c2nncs2)c1 : what is it?
>100 µM

Reported MTT TD50 for c1cncc(C2(CCN(Cc3cccn3-c3nncs3)Cc3cccn3-c3nncs3)CC2)c1 : what is it?
>100 µM

Reported MTT TD50 for Clc1ccc(CN(Cc2cccn2-c2nccs2)Cc2cccn2-c2nccs2)c(Cl)c1 : what is it?
>32 µM

###

Test system: HEp-2 cells
Experiment: Cytotoxicity assay (MTT) in parallel with the antiviral assay
Format: cell-based
Details: uninfected HEp-2 cells, 4 days incubation, MTT viability
// returns not met unless MTT TD50 is strictly below 8 µM, in which case met

[
  {
    "compound": "Cc1cc(N(Cc2cccn2-c2nccs2)Cc2cccn2-c2nccs2)n(-c2ccccc2)n1",
    "label.value": "not met"
  }
]

Just wondering, is MTT TD50 of Fc1ccccc1CN(Cc1cccn1-c1nncs1)Cc1cccn1-c1nncs1 below 8 µM?
not met

Just wondering, is MTT TD50 of c1cncc(C2(CN(Cc3cccn3-c3nncs3)Cc3cccn3-c3nncs3)CC2)c1 below 8 µM?
not met

Just wondering, is MTT TD50 of FC(F)n1ccnc1CN(Cc1cccn1-c1nccs1)Cc1cccn1-c1nccs1 below 8 µM?
not met

Just wondering, is MTT TD50 of COc1ccc(CN(Cc2cccn2-c2nncs2)Cc2cccn2-c2nncs2)c(OC)c1 below 8 µM?
not met

Just wondering, is MTT TD50 of C[C@H](c1ccccc1Cl)N(Cc1cccn1-c1nncs1)Cc1cccn1-c1nncs1 below 8 µM?
not met

Just wondering, is MTT TD50 of Cc1c(C(C)N(Cc2cccn2-c2nccs2)Cc2ncc(-c3ccccc3)n2C)cnn1-c1cccc(F)c1 (stereo not shown) below 8 µM?
met

Just wondering, is MTT TD50 of Clc1ccccc1CN(Cc1cccn1-c1nncs1)Cc1cccn1-c1nncs1 below 8 µM?
not met

Just wondering, is MTT TD50 of Cc1c(C(C)N(Cc2ccc(Cl)cc2-c2ccnc(C(F)(F)F)n2)Cc2cccn2-c2nccs2)cnn1-c1cccc(F)c1 (stereo not shown) below 8 µM?
met

Just wondering, is MTT TD50 of c1ccc(N(Cc2cccn2-c2nncs2)Cc2cccn2-c2nncs2)cc1 below 8 µM?
not met

Just wondering, is MTT TD50 of C[C@@H](c1ccccc1Cl)N(Cc1cccn1-c1nccs1)Cc1cccn1-c1nccs1 below 8 µM?
met

Just wondering, is MTT TD50 of Cc1c(C(C)N(Cc2ncc(-c3ccccc3)n2C)Cc2ncc(-c3ccccc3)n2C)cnn1-c1cccc(F)c1 (stereo not shown) below 8 µM?
met

Just wondering, is MTT TD50 of Cc1cccc(C)c1-n1ccc(CN(Cc2cccn2-c2nccs2)C(C)c2cnn(-c3cccc(F)c3)c2C)c1 (stereo not shown) below 8 µM?
met

Just wondering, is MTT TD50 of Cc1cc(N(Cc2cccn2-c2nncs2)Cc2cccn2-c2nncs2)n(-c2ccc(F)cc2)n1 below 8 µM?
not met

Just wondering, is MTT TD50 of C[C@H](c1ccc(F)cc1)N(Cc1cccn1-c1nncs1)Cc1cccn1-c1nncs1 below 8 µM?
not met

Just wondering, is MTT TD50 of c1cncc(C2(CCN(Cc3cccn3-c3nccs3)Cc3cccn3-c3nccs3)CC2)c1 below 8 µM?
not met

Just wondering, is MTT TD50 of CC(C)CN(Cc1cccn1-c1nccs1)Cc1cccn1-c1nccs1 below 8 µM?
not met

Just wondering, is MTT TD50 of C[C@H](c1ccc(F)cc1)N(Cc1cccn1-c1nccs1)Cc1cccn1-c1nccs1 below 8 µM?
met

Just wondering, is MTT TD50 of Cc1ccccc1CN(Cc1cccn1-c1nncs1)Cc1cccn1-c1nncs1 below 8 µM?
not met
